Where these numbers come from: patent US8329737B2

target-entity: Jak3 (Homo sapiens)
Construct: The kinase domain of humanJAK3 was amplified from U937mRNA; His tag (from the pFastBac HTb vector; purified on nickel chelate); made in house; host or cells: baculovirus; Sf9 for virus, High Five insect cells for production
Sequence (P52333 822-1111 limits assumed): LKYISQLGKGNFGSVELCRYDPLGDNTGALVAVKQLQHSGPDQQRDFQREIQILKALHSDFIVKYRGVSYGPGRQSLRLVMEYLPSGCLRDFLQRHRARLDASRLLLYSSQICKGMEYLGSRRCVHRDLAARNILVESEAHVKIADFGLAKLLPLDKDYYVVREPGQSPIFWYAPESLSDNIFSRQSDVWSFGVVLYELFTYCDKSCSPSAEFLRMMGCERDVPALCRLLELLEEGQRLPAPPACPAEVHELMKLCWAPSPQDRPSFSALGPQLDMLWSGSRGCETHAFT
experiment-summary: JAK kinase assay (ELISA or Alphascreen), JAK3 kinase domain
Type: biochemical
test-parameters: after 90 min pre-incubation; read-out: apparent “IC50”
observation-type: IC50 (nM)
Field format: number, assumed nM, no unit text.

// output IC50; input "C=CC(=O)Nc1ccc2ncn(-c3cncc(NC(C)(C)C)n3)c2c1" ; system Jak3 (Homo sapiens)
7
